RUN CONDITIONS: 293.15 K; 101.33 kPa; Liquid; Vibrating tube method
Exercise: state measured mass density for each of the compounds provided.
State just the number; it will be interpreted in kg/m3.

Briefly, mass density measured for `NCCO` : 1016.47

Briefly, mass density measured for `CCCCO` : 809.77

Briefly, mass density measured for `CCO` : 789.4

Briefly, mass density measured for `CC(C)CO` : 801.85

Briefly, mass density measured for `CC(C)O` : 785.1

Briefly, mass density measured for `CCCO` : 803.77

====

RUN CONDITIONS: 313.15 K; 101.33 kPa; Liquid; Vibrating tube method
Exercise: state measured mass density for each of the compounds provided.
State just the number; it will be interpreted in kg/m3.

Briefly, mass density measured for CCCO [propan-1-ol] : 787.42

Briefly, mass density measured for CC(C)(C)O [2-methylpropan-2-ol] : 764.92

Briefly, mass density measured for CCO [ethanol] : 772.04

Briefly, mass density measured for NCCO [2-aminoethan-1-ol] : 1000.5

Briefly, mass density measured for CC(C)CO [2-methyl-1-propanol] : 786.12

Briefly, mass density measured for CC(C)O [propan-2-ol] : 767.82

Briefly, mass density measured for CCCCO [butan-1-ol] : 794.24

====

RUN CONDITIONS: 323.15 K; 101.33 kPa; Liquid; Vibrating tube method
Rule: mass density of 800 kg/m3 or more gives T; anything lower gives F.

Given the entry `CC(C)O` , answer whether its mass density meets or surpasses 800 kg/m3.
F

Given the entry `CC(C)(C)O` , answer whether its mass density meets or surpasses 800 kg/m3.
F

Given the entry `NCCO` , answer whether its mass density meets or surpasses 800 kg/m3.
T

Given the entry `CCO` , answer whether its mass density meets or surpasses 800 kg/m3.
F

====

Exercise: state measured mass density for each of the compounds provided.
RUN CONDITIONS: 308.15 K; 101.33 kPa; Liquid; Vibrating tube method
Numbers after ± are expanded uncertainties.
Could you write the number and then its unit?

Briefly, mass density measured for `CCCO` : 791.52 ± 4 kg/m3

Briefly, mass density measured for `NCCO` : 1004.49 ± 4 kg/m3

Briefly, mass density measured for `CCO` : 776.41 ± 4 kg/m3

Briefly, mass density measured for `CCCCO` : 798.14 ± 4 kg/m3

Briefly, mass density measured for `CC(C)CO` : 790.09 ± 4 kg/m3

Briefly, mass density measured for `CC(C)(C)O` : 770.21 ± 4 kg/m3

Briefly, mass density measured for `CC(C)O` : 772.24 ± 4 kg/m3

====

RUN CONDITIONS: 303.15 K; 101.33 kPa; Liquid; Vibrating tube method
MEASURED ENDPOINT: mass density (kg/m3)
State just the number; it will be interpreted in kg/m3.

Briefly, mass density measured for CC(C)O [propan-2-ol] : 776.57

Briefly, mass density measured for NCCO [2-aminoethan-1-ol] : 1008.47

Briefly, mass density measured for CCO [ethanol] : 780.75

Briefly, mass density measured for CC(C)(C)O [2-methylpropan-2-ol] : 775.42

Briefly, mass density measured for CCCCO [butan-1-ol] : 802

Briefly, mass density measured for CCCO [propan-1-ol] : 795.58

Briefly, mass density measured for CC(C)CO [2-methyl-1-propanol] : 794.03

Each recorded value in this set is attributed to the NIST ThermoML archive (doi:10.1016/j.jct.2019.01.025).
